system: Plasmodium falciparum; assay: Antiplasmodial activity against asexual stage of chloroquine-sensitive Plasmodium falciparum D6 infected in human erythrocytes assessed as reduction in parasite growth incubated for 72 hrs by SYBR green 1 staining based assay; format: functional, organism-based; details: D6, Erythrocyte
Catalogue of compounds with associated IC50
The response must be a number in nM with no trailing unit.

Recorded IC50, per entry:
Please tell me: IC50 of `CCCCc1cc(/C=C2\N=C(c3ccc[nH]3)C=C2OC)[nH]c1C.Cl` , system Plasmodium falciparum?
11

Please tell me: IC50 of `CCCCCc1cc(/C=C2\N=C(c3ccc[nH]3)C=C2OC)[nH]c1C.Cl` , system Plasmodium falciparum?
8

Please tell me: IC50 of `CCCCCCCc1cc(/C=C2\N=C(c3ccc(Cc4ccc(O)cc4)[nH]3)C=C2OC)[nH]c1C.Cl` , system Plasmodium falciparum?
48

Turning now to a further compound:
Please tell me: IC50 of `O=C1C(O)=C([C@H]2CC[C@H](c3ccc(Cl)cc3)CC2)C(=O)c2ccccc21` , system Plasmodium falciparum?
0.1
